assay: Cytotoxicity against human T98 cells by MTT assay; type: functional, cell-based
propertyName: IC50 (µM)
Quick reminder: number only, in µM, skip the unit.

Request: // IC50 lookup, key: O=c1c(Nc2cc(C(F)(F)F)cc(C(F)(F)F)c2)c(N[C@@H](c2ccccc2)C(O)(c2ccccc2)c2ccccc2)c1=O
Response: 7.15

====

system: HeLa; assay: Cytotoxicity against human HeLa cells assessed as inhibition of cell viability at 100 uM after 24 hrs by MTT assay; type: functional, cell-based
Active and inactive are the calls of the source. No cut-off for these calls is given here.
Answer with one of the outcomes active, inactive

Request: Returns: the outcome recorded for COc1c(N[C@H]2c3ccccc3C[C@H]2O)c(=O)c1=O in this assay.
Response: inactive

Request: Queued: C=CC1CN2CCC1CC2[C@@H](Nc1c(Nc2cc(C(F)(F)F)cc(C(F)(F)F)c2)c(=O)c1=O)c1ccnc2ccc(OC)cc12 (some centres undefined)
Response: active

Request: Queued: COc1c(N[C@@H]2CCCC[C@H]2NS(=O)(=O)c2ccc(C)cc2)c(=O)c1=O
Response: inactive

Request: Queued: C=CC1CN2CCC1CC2[C@@H](Nc1c(NCc2cc(C(F)(F)F)cc(C(F)(F)F)c2)c(=O)c1=O)c1ccnc2ccc(OC)cc12 (some centres undefined)
Response: active

Request: Queued: Cc1ccc(S(=O)(=O)N[C@@H]2CCCC[C@H]2Nc2c(NCc3cc(C(F)(F)F)cc(C(F)(F)F)c3)c(=O)c2=O)cc1
Response: active

Request: Queued: COc1c(Nc2cc(F)c(F)c(F)c2)c(=O)c1=O
Response: inactive

Request: Queued: COc1c(Nc2ccc([N+](=O)[O-])cc2)c(=O)c1=O
Response: inactive

Request: Queued: O=c1c(Nc2cc(C(F)(F)F)cc(C(F)(F)F)c2)c(N[C@@H]2CCCC[C@H]2N2CCCCC2)c1=O
Response: active

Request: Queued: C[C@@H](Nc1c(Nc2cc(C(F)(F)F)cc(C(F)(F)F)c2)c(=O)c1=O)c1ccccc1
Response: active

Request: Queued: COc1ccc(Nc2c(OC)c(=O)c2=O)c(OC)c1
Response: inactive

Request: Queued: C=CC1CN2CCC1CC2[C@H](Nc1c(NCc2cc(C(F)(F)F)cc(C(F)(F)F)c2)c(=O)c1=O)c1ccnc2ccccc12 (some centres undefined)
Response: active

Request: Queued: O=c1c(Nc2cc(C(F)(F)F)cc(C(F)(F)F)c2)c(N[C@H]2c3ccccc3C[C@H]2O)c1=O
Response: active

Request: Queued: CCc1cc(C#N)ccc1Nc1c(OC)c(=O)c1=O
Response: inactive

Request: Queued: O=c1c(NCc2cc(C(F)(F)F)cc(C(F)(F)F)c2)c(N[C@@H]2CCCC[C@H]2N2CCCCC2)c1=O
Response: active

Request: Queued: COc1c(N[C@@H](C)c2cccc3ccccc23)c(=O)c1=O
Response: inactive

Request: Queued: COc1c(Nc2ccc(C(F)(F)F)cc2)c(=O)c1=O
Response: inactive

Request: Queued: O=c1c(Nc2cc(C(F)(F)F)cc(C(F)(F)F)c2)c(N[C@@H](c2ccccc2)C(O)(c2ccccc2)c2ccccc2)c1=O
Response: active

Request: Queued: COc1c(Nc2cc(F)cc(F)c2)c(=O)c1=O
Response: inactive

Request: Queued: C=CC1CN2CCC1CC2[C@@H](Nc1c(Nc2ccc(C(F)(F)F)cc2)c(=O)c1=O)c1ccnc2ccccc12 (some centres undefined)
Response: active

Request: Queued: O=c1c(Nc2cc(C(F)(F)F)cc(C(F)(F)F)c2)c(N[C@@H](CO)Cc2ccccc2)c1=O
Response: active

Request: Queued: C=CC1CN2CCC1CC2[C@@H](Nc1c(Nc2ccc(C(F)(F)F)cc2)c(=O)c1=O)c1ccnc2ccc(OC)cc12 (some centres undefined)
Response: active

Request: Queued: COc1c(Nc2cc(OC(C)C)c(Cl)cc2Cl)c(=O)c1=O
Response: inactive

Request: Queued: COc1c(N(C)c2ccccc2)c(=O)c1=O
Response: inactive

Request: Queued: COc1c(Nc2ccc(C(C)(C)C)cc2)c(=O)c1=O
Response: inactive

Request: Queued: COc1ccc(Nc2c(OC)c(=O)c2=O)cc1
Response: inactive

Request: Queued: COc1c(Nc2ccccc2)c(=O)c1=O
Response: inactive

Request: Queued: Cc1ccc(S(=O)(=O)N[C@@H]2CCCC[C@H]2Nc2c(Nc3cc(C(F)(F)F)cc(C(F)(F)F)c3)c(=O)c2=O)cc1
Response: active

Request: Queued: C=CC1CN2CCC1CC2[C@@H](Nc1c(Nc2cc(C(F)(F)F)cc(C(F)(F)F)c2)c(=O)c1=O)c1ccnc2ccccc12 (some centres undefined)
Response: active

Request: Queued: CN(C)[C@@H]1CCCC[C@H]1Nc1c(Nc2cc(C(F)(F)F)cc(C(F)(F)F)c2)c(=O)c1=O
Response: active
